These entries and their values trace back to patent US9296704B2.

# MEASUREMENT_TARGET: EGFR (T790M/L858R) (Homo sapiens, UniProt P00533, L858R/T790M)
# Sequence (P00533 25-1210 T790M/L858R): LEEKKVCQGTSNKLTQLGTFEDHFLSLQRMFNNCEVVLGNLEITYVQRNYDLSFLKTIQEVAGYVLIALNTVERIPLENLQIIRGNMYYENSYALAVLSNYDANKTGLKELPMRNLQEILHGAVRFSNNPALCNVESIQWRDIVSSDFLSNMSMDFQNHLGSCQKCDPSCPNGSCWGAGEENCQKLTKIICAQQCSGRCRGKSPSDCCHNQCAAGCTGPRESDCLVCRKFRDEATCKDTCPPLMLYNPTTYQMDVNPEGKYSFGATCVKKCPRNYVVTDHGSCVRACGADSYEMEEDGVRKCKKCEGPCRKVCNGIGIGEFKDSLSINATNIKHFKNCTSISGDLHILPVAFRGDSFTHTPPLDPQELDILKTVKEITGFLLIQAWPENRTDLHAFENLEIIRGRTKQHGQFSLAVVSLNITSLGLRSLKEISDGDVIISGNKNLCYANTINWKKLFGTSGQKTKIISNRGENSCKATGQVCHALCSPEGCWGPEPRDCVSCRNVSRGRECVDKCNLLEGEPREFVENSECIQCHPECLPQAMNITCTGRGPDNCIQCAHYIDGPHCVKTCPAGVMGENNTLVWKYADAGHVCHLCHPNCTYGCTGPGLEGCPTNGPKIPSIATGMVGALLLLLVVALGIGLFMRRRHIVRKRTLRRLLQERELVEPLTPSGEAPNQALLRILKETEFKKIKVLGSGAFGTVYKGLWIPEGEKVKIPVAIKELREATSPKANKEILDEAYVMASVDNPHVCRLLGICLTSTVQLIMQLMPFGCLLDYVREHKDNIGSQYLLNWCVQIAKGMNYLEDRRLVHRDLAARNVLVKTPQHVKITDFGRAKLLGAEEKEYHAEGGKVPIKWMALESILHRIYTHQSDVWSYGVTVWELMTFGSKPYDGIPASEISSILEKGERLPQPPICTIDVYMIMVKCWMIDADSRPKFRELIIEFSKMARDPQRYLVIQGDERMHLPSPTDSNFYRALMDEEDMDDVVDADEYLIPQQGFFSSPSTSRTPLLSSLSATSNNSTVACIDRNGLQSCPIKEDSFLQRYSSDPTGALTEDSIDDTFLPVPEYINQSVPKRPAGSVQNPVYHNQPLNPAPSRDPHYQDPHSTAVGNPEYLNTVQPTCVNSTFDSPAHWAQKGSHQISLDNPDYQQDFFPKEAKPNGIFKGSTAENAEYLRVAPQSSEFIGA
# METHOD_SUMMARY: Omnia continuous-read kinase assay, EGFR (T790M/L858R)
# CONDITION_SUMMARY: read-out: EGFR (T790M/L858R) inhibiton

ENTRY_SMILES | MEASUREMENT_TARGET | IC50
C=CS(=O)(=O)Nc1cccc(Nc2cc(Nc3ccc(F)c(Cl)c3)ncn2)c1 | EGFR (T790M/L858R) (Homo sapiens, UniProt P00533, L858R/T790M) | ≤ 10 nM
C=CC(=O)N(C)c1cccc(Nc2cc(Nc3ccc(F)c(Cl)c3)ncn2)c1 | EGFR (T790M/L858R) (Homo sapiens, UniProt P00533, L858R/T790M) | 100 to 1000 nM
C=CC(=O)Nc1cccc(Nc2cc(Oc3cccc(C)c3)ncn2)n1 | EGFR (T790M/L858R) (Homo sapiens, UniProt P00533, L858R/T790M) | 10 to 100 nM
O=C(/C=C/CN1CCCC1)Nc1cccc(Nc2cc(Nc3ccc(F)c(Cl)c3)ncn2)c1 | EGFR (T790M/L858R) (Homo sapiens, UniProt P00533, L858R/T790M) | ≤ 10 nM
C=CC(=O)Nc1cccc(Nc2cc(Nc3ccc(OCc4ccccn4)c(Cl)c3)ncn2)c1 | EGFR (T790M/L858R) (Homo sapiens, UniProt P00533, L858R/T790M) | 10 to 100 nM
O=C(Nc1cccc(Nc2cc(Nc3ccc(F)c(Cl)c3)ncn2)c1)C1(C(F)(F)F)CC1 | EGFR (T790M/L858R) (Homo sapiens, UniProt P00533, L858R/T790M) | 1000 to 10000 nM
C=CC(=O)Nc1cccc(Nc2cc(Nc3ccccc3)ncn2)n1 | EGFR (T790M/L858R) (Homo sapiens, UniProt P00533, L858R/T790M) | ≤ 10 nM
C#Cc1cccc(Nc2cc(Nc3cccc(Br)c3)ncn2)c1 | EGFR (T790M/L858R) (Homo sapiens, UniProt P00533, L858R/T790M) | ≥ 10000 nM
